biological target: T1, MERS spike extracellular domain (Middle East respiratory syndrome …, UniProt K9N5Q8 18-1296); test: ELISA
T1 construct: extracellular domain
T1 sequence (K9N5Q8 18-1296): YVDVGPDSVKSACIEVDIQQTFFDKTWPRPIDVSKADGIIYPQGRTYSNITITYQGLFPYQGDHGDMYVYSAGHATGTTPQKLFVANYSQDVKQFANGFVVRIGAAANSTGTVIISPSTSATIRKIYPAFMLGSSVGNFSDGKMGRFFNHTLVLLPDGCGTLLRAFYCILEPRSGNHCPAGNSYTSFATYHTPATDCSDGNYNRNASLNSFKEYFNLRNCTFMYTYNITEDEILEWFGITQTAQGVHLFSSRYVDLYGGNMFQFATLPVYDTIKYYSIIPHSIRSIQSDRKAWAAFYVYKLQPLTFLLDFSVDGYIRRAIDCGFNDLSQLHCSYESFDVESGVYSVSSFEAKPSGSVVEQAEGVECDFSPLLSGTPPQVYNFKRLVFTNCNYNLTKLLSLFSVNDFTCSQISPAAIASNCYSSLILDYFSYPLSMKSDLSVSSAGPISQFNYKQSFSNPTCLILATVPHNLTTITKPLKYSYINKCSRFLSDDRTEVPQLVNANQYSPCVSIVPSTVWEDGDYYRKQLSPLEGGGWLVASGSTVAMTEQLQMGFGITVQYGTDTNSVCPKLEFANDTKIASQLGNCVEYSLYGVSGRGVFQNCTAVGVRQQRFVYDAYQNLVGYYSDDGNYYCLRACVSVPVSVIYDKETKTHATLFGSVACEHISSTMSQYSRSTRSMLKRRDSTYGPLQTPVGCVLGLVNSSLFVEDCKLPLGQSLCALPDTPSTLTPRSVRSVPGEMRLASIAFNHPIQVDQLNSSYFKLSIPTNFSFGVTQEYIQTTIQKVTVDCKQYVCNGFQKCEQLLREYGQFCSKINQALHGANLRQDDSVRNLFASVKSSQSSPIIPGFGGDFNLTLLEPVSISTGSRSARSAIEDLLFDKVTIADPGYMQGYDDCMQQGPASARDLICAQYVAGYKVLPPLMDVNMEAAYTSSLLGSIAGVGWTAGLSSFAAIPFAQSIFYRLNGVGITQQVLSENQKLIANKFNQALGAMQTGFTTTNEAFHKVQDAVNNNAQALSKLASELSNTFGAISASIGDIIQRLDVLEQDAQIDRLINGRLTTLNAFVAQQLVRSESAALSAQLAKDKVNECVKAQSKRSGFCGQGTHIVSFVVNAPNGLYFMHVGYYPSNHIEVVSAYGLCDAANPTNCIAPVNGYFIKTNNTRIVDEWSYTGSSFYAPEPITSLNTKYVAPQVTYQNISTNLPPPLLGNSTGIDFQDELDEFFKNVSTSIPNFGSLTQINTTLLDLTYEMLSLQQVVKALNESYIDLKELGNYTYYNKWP
QUANTITY: binding result

| BINDER | binding result |
| --- | --- |
| FM 1A (antibody, V domains shown) VH: EVQLLESGGGVVQPGRSLRLSCAASGFTFSSYGMHWVRQAPGKGLEWVAVIWYDGSNKYYADSVKGRFTISRDNSKNTLYLQMNSLRAEDTAVYYCAREGAVGATRGFDYWGQGTLVTVSS VL: SYELTQPPSVSVAPGQTARITCGGNNIGSKSVHWYQQKPGQAPVLVVYDDSDRPSGIPERFSGSNSGNTATLTISRVEAGDEADYYCQVWDSSSDQGVFGGGTKLTVL | no binding |
| FJ 4E (antibody, V domains shown) VH: QVQLVESGPGLVKPSETLSLTCSVSGGSISSGTYYWSWIRQQPGKGLEWIGYIYNTGRPYYNPFLKSRITISVDSSKNQFSLKLTSVTAADTAVYYCARDEYDSSDSGIQGHWFDPWGQGTLVTVSS VL: AIRMTQSPSSLSASVGDRVTITCRTSQNINSFLNWYQQKPGKGPNLLIYGAFTLQSGVPSRFSGSGSGTDFTLTISSLQPEDFATYFCQQSYSTPWTFGQGTKVEIK | binds |
| FI 4A (antibody, V domains shown) VH: EVQLVESGGGLVKPGGSLRLSCAASGFTFSRFSMNWVRQAPGKGLEWVSSISSSGSYIYFADSVKGRFTISRDNAKNSLYLQMNSLRAEDTAIYYCATYLFGDSHTYWGQGTLVTVSS VL: QSVLTQPHSVSESPGKTVTISCTGSSGSIASNYVQWYQQRPGSAPTTVIYEDNQRPSGVPDRFSGSIDSSSNSASLTISGLKTEDEADYYCQSYDSSNLHWVFGGGTKLTVL | no binding |
| FM 7B (antibody, V domains shown) VH: EVQLVQSGAEVKKPGASVKVSCKASGYTFTSYAMHWVRQAPGQRLEWMGWINTGNGNTKYSQKFQGRVTITRDTSASTAYMELSSLRSEDTAVYYCARDPTYCSSTSCYPFSWFDPWGQGTLVTVSS VL: NFMLTQPPSVSVAPGQTARITCGGNNIGSKSVHWYQQKPGQAPVLVVYDDSDRPSGIPERFSGSNSGNTATLTISRVEAGDEADYYCQVWDSTGDHSWVFGGGTKLTVL | no binding |
| FN 2C (antibody, V domains shown) VH: EVQLLESGGGVVQPGRSLRLSCAASGFNFNNYGMHWVRQAPGKGLEWVATISYEGSKKFYVDSVKGRFTISKDNSKNTLYLQMNSLRVDDTAFYYCAKRREIFWLGEPPLSDAFDFWGQGTMVTVSS VL: QSVLTQPPSVSGAPGQRVTISCTGSGSNIGAGYDVHWYQFLPGTAPQLLIYGNNNRPSGVPDRFSGSKSGTSASLAITGLQAEDEADYYCQSYDSSLSGSVFGGGTKLTVL | no binding |

Turning to the following binder.
Reported binding result for FB 1E (antibody, V domains shown) VH: EVQLVESGAEVKKPGESLKISCQGSGYRFNSYWIAWVRQMPGKGLEWMGSIFPTDSDIRYNPSFQGQVTISADKSISIAYLQWSSLKASDTAIYYCARHWASMVRGVIRASHYYGMDVWGQGTTVTVSS VL: QSVLTQPPSASGSPGQSVTISCSGASSDIGDYNYVSWYQQLPGKAPKLLIYEVTKRPSGVPDRFSGSKSGNTASLTVSGLQADDEADYYCSSYAFGGSDIRVFGGGTKLAVL was binds
